- assay explanation: VP16 transactivation inhibitors, counter-screen for SRC1 inhibitor project, cell-based, luminescence, high throughput (AID 588824)
- condition: cell-based VP16 transactivation luciferase luminescence; at 3.6 µM; active compounds read high
Label Condition met when inhibition is at or above 10%; anything below gets Condition not met.

structure smiles	category
COc1ccc(CCNc2c3ccccc3nc3ccccc23)cc1OC	Condition met
CCN(CC)S(=O)(=O)c1ccc(NC(=O)c2ccc(N3CCCC3=O)cc2)cc1	Condition met
O=S(=O)(Nc1ccc2c(c1)OCCO2)c1cccc2nsnc12	Condition not met
CN(C)CCNC(=O)c1ccc(Cl)c2cc3ccccc3nc12	Condition met
COc1cccc(-c2nnc3sc(C4CCCCC4)nn23)c1	Condition met
NC(=O)c1cccc(-c2cnc(N)c(C(=O)c3cccnc3)n2)c1	Condition met
CN(Cc1cccs1)C(=O)CN1CCN(S(=O)(=O)c2ccc3c(c2)OCCCO3)CC1	Condition not met
CC(=O)c1c(C)[nH]c(C(=O)COc2ccc3ccc(=O)oc3c2)c1C	Condition not met
CC(C)(O)C#Cc1ccc([C@@H]2C[C@H]3CN(c4ccccc4)C(=O)[C@]34CCCN24)s1	Condition met
Cc1ccc(NNC(=O)C(=O)N2CCCCC2)cc1	Condition met
CCc1ccc(-n2cc(-c3ccc(F)cc3)[n+]3c2SCCC3)cc1	Condition met

----------
Recorded inhibition for the following compounds
- tested on: Steroidogenic factor 1 (Homo sapiens) (UniProt Q13285)
- Sequence (Q13285 whole entry, looked up): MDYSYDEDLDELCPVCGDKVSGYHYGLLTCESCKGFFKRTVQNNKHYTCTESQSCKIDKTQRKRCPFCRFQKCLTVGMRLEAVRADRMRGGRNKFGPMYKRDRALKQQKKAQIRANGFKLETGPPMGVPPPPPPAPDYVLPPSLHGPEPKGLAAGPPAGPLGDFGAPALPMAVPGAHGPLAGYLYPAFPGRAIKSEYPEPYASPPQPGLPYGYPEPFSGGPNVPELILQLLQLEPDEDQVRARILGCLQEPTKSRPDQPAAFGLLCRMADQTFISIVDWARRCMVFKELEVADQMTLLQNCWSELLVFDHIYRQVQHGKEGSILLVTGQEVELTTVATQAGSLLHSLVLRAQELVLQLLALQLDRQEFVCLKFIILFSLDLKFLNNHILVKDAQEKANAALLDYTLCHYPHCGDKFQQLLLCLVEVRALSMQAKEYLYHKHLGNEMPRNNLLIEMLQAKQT
- assay explanation: SF1 (NR5A1) inverse agonists, counter-screen for LRH-1 inverse agonist project, cell-based, luminescence, high throughput (AID 651614);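 also: cells cotransfected with StAR promoter reporter and SF1 expression vector; 0% = vehicle on cells with receptor and 100% = vehicle on cells lacking receptor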
- condition: cell-based SF1 luciferase reporter, at 3.6 µM, active compounds read high

compound	unit abbreviation	inhibition
O=C(NCc1ccccc1)c1cccc(NC(=O)c2ccccc2)c1	%	59.2
CN(Cc1cnc2nc(N)nc(N)c2n1)c1ccc(C(=O)NC(CCC(=O)O)C(=O)O)c2ccccc12 (stereo unspecified)	%	47.6
COc1ccc(NC(=O)c2cc(-c3cc(Cl)ccc3C)n[nH]2)cc1OC	%	61.1
NS(=O)(=O)c1ccc(NC(=O)/C=C/c2ccc3c(c2)OCO3)cc1	%	62.2
CN1CCN(c2ccc(S(=O)(=O)N3CCCCC3)cc2NC(=O)COc2ccc([N+](=O)[O-])cc2)CC1	%	53.1
N#Cc1cc([N+](=O)[O-])ccc1NC(=O)COC(=O)C1CCC(=O)N1 (stereo unspecified)	%	48.9
Cc1cccc(NC(=O)COC(=O)c2cccs2)c1C	%	56.8
COc1ccc(CCNC(=O)CN2C(=O)NC3(CCCCC3)C2=O)cc1	%	54
CCOc1ccc(-c2noc(CCC(=O)O)n2)cc1	%	23.1
O=C(CCCN1C(=O)/C(=C/c2ccccc2Cl)SC1=S)NNC(=O)c1ccccc1Cl	%	46.8
CCOc1cc(/C=C2\CCC/C(=C\c3cc(Cl)c(O)c(OCC)c3)C2=O)cc(Cl)c1O	%	61.1
CC[n+]1c(/C=C2\Sc3ccccc3N2C)ccc2cccc(C)c21	%	91.6
COC(=O)c1ccc(NC(=O)CSc2nnc(C)n2CC2CCCO2)cc1 (stereo unspecified)	%	40.7
CC(=O)c1cccc(N=c2scc(-c3ccc(S(=O)(=O)N4CCOCC4)cc3)n2CCO)c1	%	69.7
COc1cc(OC)cc(-c2oc3cccnc3c2C#CCCO)c1	%	54.2
COC(=O)C1(C)Nc2ccccc2C(=O)N1c1ccccc1C (stereo unspecified)	%	0.53
Cc1cc(C)c2sc(NNC(=O)c3ccc(S(=O)(=O)N4CCc5ccccc5C4)cc3)nc2c1	%	66.8
O=C1c2cccc3cc([N+](=O)[O-])cc(c23)C(=O)N1CCN1CCCC1	%	68.6
O=C(Nc1cccc(S(=O)(=O)N2CCCCC2)c1)c1ccc([N+](=O)[O-])o1	%	69.2
OCC1OC(n2ccc3c(NO)ncnc32)C(O)C1O (stereo unspecified)	%	97
O=C1CC(c2cccc([N+](=O)[O-])c2)c2ccc3ccccc3c2N1 (stereo unspecified)	%	39.5
